target: ATM (Homo sapiens (Human)); assay: ATM biochemical assay (Reaction Biology HTRF kinase assay, 10 μM ATP); conditions: class symbol
Sequence (Q13315 whole entry): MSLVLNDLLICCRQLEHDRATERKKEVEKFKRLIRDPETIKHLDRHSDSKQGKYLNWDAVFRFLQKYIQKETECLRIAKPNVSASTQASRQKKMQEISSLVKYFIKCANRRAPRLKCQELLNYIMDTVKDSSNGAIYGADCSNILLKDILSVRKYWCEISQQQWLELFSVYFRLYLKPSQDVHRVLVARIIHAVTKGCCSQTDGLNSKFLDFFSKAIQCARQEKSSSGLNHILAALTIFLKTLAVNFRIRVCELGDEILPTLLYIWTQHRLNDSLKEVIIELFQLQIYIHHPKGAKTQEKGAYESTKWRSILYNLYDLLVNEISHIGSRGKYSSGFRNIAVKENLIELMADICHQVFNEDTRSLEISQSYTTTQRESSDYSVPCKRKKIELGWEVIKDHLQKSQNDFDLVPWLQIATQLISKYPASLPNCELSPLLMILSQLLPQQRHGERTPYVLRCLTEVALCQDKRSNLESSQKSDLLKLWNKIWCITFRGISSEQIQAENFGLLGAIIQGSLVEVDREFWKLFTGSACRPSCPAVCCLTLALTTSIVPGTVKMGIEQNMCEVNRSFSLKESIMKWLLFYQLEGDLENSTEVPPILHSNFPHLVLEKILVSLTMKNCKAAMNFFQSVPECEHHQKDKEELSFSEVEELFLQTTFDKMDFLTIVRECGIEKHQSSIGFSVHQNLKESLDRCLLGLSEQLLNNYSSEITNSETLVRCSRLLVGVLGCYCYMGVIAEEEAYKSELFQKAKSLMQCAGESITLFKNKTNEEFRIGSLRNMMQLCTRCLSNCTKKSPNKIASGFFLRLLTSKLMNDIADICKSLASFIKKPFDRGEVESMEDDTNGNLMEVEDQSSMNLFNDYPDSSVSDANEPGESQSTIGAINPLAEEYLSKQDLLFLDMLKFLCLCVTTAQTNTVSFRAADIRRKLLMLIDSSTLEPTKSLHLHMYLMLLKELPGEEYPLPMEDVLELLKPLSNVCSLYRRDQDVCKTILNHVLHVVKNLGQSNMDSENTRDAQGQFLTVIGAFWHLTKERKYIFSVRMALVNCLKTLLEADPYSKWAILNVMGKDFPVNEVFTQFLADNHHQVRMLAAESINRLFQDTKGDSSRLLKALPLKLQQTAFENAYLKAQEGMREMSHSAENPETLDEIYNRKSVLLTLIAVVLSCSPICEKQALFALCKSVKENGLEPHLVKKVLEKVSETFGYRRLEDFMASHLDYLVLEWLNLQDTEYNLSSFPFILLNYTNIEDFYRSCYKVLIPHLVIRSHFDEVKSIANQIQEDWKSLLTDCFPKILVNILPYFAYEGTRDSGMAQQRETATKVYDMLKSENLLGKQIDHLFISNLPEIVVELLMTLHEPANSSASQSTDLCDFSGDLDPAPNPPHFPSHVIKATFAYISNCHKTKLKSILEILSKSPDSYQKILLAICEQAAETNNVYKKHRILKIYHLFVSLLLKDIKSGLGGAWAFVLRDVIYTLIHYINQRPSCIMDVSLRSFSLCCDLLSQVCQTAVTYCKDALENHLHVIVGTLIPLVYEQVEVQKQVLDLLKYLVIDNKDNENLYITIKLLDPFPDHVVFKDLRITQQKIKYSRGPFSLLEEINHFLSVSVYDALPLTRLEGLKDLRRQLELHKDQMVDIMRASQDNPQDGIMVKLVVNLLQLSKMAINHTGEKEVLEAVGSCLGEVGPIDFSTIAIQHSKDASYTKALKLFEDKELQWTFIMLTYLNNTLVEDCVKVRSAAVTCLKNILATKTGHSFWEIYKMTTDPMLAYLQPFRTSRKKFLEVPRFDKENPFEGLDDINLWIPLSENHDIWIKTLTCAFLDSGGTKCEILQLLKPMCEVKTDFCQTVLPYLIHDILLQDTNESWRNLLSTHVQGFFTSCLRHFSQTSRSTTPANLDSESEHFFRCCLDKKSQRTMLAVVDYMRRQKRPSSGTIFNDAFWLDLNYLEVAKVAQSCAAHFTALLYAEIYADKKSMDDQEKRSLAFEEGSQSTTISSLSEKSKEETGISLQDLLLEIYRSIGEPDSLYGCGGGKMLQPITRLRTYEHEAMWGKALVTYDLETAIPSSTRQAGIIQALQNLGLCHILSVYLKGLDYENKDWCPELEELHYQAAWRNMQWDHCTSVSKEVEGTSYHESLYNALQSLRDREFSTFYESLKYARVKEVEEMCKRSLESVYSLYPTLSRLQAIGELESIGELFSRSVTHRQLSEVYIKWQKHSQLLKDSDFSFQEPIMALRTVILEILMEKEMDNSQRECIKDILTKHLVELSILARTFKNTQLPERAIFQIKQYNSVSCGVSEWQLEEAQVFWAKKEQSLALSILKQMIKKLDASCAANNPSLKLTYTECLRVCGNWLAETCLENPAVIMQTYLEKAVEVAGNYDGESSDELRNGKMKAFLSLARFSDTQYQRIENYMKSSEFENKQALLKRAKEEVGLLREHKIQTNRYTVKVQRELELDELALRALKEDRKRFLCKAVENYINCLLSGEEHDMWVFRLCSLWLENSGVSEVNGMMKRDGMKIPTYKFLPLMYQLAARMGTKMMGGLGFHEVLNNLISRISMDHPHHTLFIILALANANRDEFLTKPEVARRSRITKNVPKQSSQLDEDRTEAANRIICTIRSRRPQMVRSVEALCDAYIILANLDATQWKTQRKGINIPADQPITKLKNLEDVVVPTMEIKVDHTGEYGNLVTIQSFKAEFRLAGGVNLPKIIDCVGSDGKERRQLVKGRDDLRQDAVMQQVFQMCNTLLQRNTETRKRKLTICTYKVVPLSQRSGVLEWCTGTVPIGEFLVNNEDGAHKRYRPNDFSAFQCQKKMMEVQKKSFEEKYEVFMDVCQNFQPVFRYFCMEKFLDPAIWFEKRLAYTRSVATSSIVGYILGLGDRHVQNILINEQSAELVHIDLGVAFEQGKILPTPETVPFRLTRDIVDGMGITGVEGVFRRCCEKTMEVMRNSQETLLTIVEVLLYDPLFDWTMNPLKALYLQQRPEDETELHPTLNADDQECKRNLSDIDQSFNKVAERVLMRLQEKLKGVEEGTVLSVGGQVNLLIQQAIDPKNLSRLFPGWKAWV
property_measured: IC50

Example results:
Cc1cc2nsnc2cc1Nc1ncc2c(n1)n(C13CC(F)(C1)C3)c(=O)n2C [Compound 14] | 100 to 1000 nM
COC12CCC(n3c(=O)n(C)c4cnc(Nc5cc6nccnc6cc5C)nc43)(CC1)C2 [Compound 9] | 10 to 100 nM
COC12CCC(N3CC(=O)N(C)c4cnc(Nc5cc6nsnc6cc5C)nc43)(CC1)C2 [Compound 64] | 1 to 10 nM

# input Look up ATM (Homo sapiens (Human)) data: IC50 of COC12CCC(n3c(=O)n(C)c4cnc(Nc5cc6c(cc5C)OCO6)nc43)(CC1)CC2 [Compound 26] , then report it.
# output 10 to 100 nM

# input Look up ATM (Homo sapiens (Human)) data: IC50 of Cc1cc2c(cc1Nc1ncc3c(n1)n(C14CC(CC#N)(C1)C4)c(=O)n3C)OCO2 [Compound 23] , then report it.
# output 10 to 100 nM

# input Look up ATM (Homo sapiens (Human)) data: IC50 of Cc1cc2nonc2cc1Nc1ncc2c(n1)N(C13CCC(O)(CC1)C3)CC(=O)N2C [Compound 60] , then report it.
# output 10 to 100 nM

# input Look up ATM (Homo sapiens (Human)) data: IC50 of Cc1cc(-c2cnco2)ncc1Nc1ncc2c(n1)N(C13CC(F)(C1)C3)C(=O)C21CC1 [Compound 74] , then report it.
# output 10 to 100 nM

# input Look up ATM (Homo sapiens (Human)) data: IC50 of COC12CCC(n3c(=O)n(C)c4cnc(Nc5cc(F)c(-c6cnn(C)c6)cc5C)nc43)(C1)C2 [Compound 39] , then report it.
# output 10 to 100 nM

# input Look up ATM (Homo sapiens (Human)) data: IC50 of COC12CCC(n3c(=O)n(C)c4cnc(Nc5cn6ncnc6cc5C)nc43)(CC1)C2 [Compound 6] , then report it.
# output 10 to 100 nM

# input Look up ATM (Homo sapiens (Human)) data: IC50 of Cc1cc2c(cc1Nc1ncc3c(n1)n(C14CCC(O)(CC1)C4)c(=O)n3C)OCCO2 [Compound 5] , then report it.
# output 10 to 100 nM

# input Look up ATM (Homo sapiens (Human)) data: IC50 of Cc1cc2nsnc2cc1Nc1ncc2c(C)nn(C34CC(C3)C4)c2n1 [Compound 50] , then report it.
# output 10 to 100 nM

# input Look up ATM (Homo sapiens (Human)) data: IC50 of COCC12CC(n3c(=O)n(C)c4cnc(Nc5cc6c(cc5C)OCO6)nc43)(C1)C2 [Compound 21] , then report it.
# output 10 to 100 nM
